system: redroot pigweed (Amaranthus retroflexus, AMARE); assay: Post-emerge test, greenhouse herbicide activity screening; format: in vivo; details: post-emerge, 63 g ai/ha, 14 days after application, rating scale 0-100 (0 no damage, 100 complete death)
Exam item: assign Criterion met to entries whose phytotoxicity rating AMARE is below 80 and Criterion not met to entries at or above 80. Note that a value of exactly 80 receives Criterion not met.

>>> print(df.to_string())
                                   compound     classification
0  Cn1c(C(F)(F)F)cc(=O)n(-c2ccc(Cl)cc2NC(=O)Oc2ccccc2)c1=O      Criterion met
1  COc1c(Cl)cc(F)c(-n2c(=O)cc(C(F)(F)F)n(C)c2=O)c1NC(=O)OC(C)c1ccccc1 (centres unmarked)      Criterion met
2  CC(C)Oc1c(Cl)cc(F)c(-n2c(=O)cc(C(F)(F)F)n(C)c2=O)c1NC(=O)c1ccc2ccccc2c1  Criterion not met
3  COc1c(Cl)cc(F)c(-n2c(=O)cc(C(F)(F)F)n(C)c2=O)c1NC(=O)OCc1ccc(OC(F)(F)F)cc1  Criterion not met
4  COC(=O)Nc1c(OC)c(Cl)cc(F)c1-n1c(=O)cc(C(F)(F)F)n(C)c1=O      Criterion met
5  COc1ccc(COC(=O)Nc2c(OC)c(Cl)cc(F)c2-n2c(=O)cc(C(F)(F)F)n(C)c2=O)cc1  Criterion not met
6  COc1c(Cl)cc(F)c(-n2c(=O)cc(C(F)(F)F)n(C)c2=O)c1NC(=O)OCc1ccccn1  Criterion not met
7  COc1c(Cl)cc(F)c(-n2c(=O)cc(C(F)(F)F)n(C)c2=O)c1NC(=O)OCc1ccccc1C(F)(F)F  Criterion not met

----------
system: johnsongrass (Sorghum halepense, SORHA); assay: Pre-emerge test, greenhouse herbicide activity screening; format: in vivo; settings: pre-emerge, 63 g ai/ha, 14 days after application, rating scale 0-100
quantityMeasured: phytotoxicity rating SORHA

                                   compound  result
0  COc1c(Cl)cc(F)c(-n2c(=O)cc(C(F)(F)F)n(C)c2=O)c1NNC(=O)C1CC1 [Compound 15-2]     100
1  CCOC(=O)C(Cl)(CC(=O)OC)Cc1c(OC)c(Cl)cc(F)c1-n1c(=O)cc(C(F)(F)F)n(C)c1=O (centres unmarked) [14-50]      50
2  COc1c(Cl)cc(F)c(-n2c(=O)cc(C(F)(F)F)n(C)c2=O)c1OC(=O)c1ccc2ccccc2c1 [Compound 16-7]       0
3  COc1c(Cl)cc(F)c(-n2c(=O)cc(C(F)(F)F)n(C)c2=O)c1O [Compound 16-6]       0
4  COc1c(Cl)cc(F)c(-n2c(=O)cc(C(F)(F)F)n(C)c2=O)c1NN=C(C)C [15-12]     100
5  COc1c(Cl)cc(F)c(-n2c(=O)cc(C(F)(F)F)n(C)c2=O)c1Sc1ccc2ccccc2c1 [17-4]       0
6  COc1c(Cl)cc(F)c(-n2c(=O)cc(C(F)(F)F)n(C)c2=O)c1NN=CC1CC1 [Compound 15-11]     100
7  COc1c(Cl)cc(F)c(-n2c(=O)cc(C(F)(F)F)n(C)c2=O)c1NN=CC(C)c1ccccc1 (centres unmarked) [15-17]     100

----------
system: upland rice (Oryza sp., var. Tebonnet, RICE); experiment: Post-emerge test, crop safety; format: in vivo; details: post-emerge, 63 g ai/ha, crop damage rating 0-100 at 14 days after application
Attribute: Post-emerge Herbicidal Activity RICE
quantityMeasured: Post-emerge Herbicidal Activity RICE

In [3]: df
Out[3]:
                          structureassmiles  result
0  O=C(Nc1cc(Cl)ccc1-n1c(=O)n2n(c1=S)CCCC2)c1ccc2ccccc2c1       0
1  CCC(=O)Nc1c(Cl)cc(Cl)c(-n2nc(C)n(C(F)F)c2=O)c1N       0
2  COc1c(Cl)cc(F)c(-n2c(=O)n3n(c2=O)CCCC3)c1NC(=O)c1ccc(F)cc1F      30

----------
tested on: lambsquarters (Chenopodium album, CHEAL); experiment: Pre-emerge test, greenhouse herbicide activity screening; format: in vivo; details: 250 g ai/ha; rating scale 0-100, 14 days after application
quantityMeasured: Pre-emerge herbicidal activity, phytotoxicity rating CHEAL

In [3]: df
Out[3]:
                                    molecule  result
 0  COCCOC(=O)C(C)(Cl)Cc1c(OC)c(Cl)cc(F)c1-n1c(=O)cc(C(F)(F)F)n(C)c1=O (centres unmarked)     100
 1  CCOC(=O)C(Br)Cc1c(OC)c(Cl)cc(F)c1-n1c(=O)cc(C(F)(F)F)n(C)c1=O (single isomer, unassigned)     100
 2  CCCOC(=O)C(Cl)Cc1c(OC)c(Cl)cc(F)c1-n1c(=O)cc(C(F)(F)F)n(C)c1=O (single isomer, unassigned) [14-7]      85
 3  CCCOC(=O)C(C)(Cl)Cc1c(OC)c(Cl)cc(F)c1-n1c(=O)cc(C(F)(F)F)n(C)c1=O (centres unmarked)     100
 4  CCOC(=O)C(Cl)Cc1c(OC)c(Cl)cc(F)c1-n1c(=O)cc(C(F)(F)F)n(C)c1=O (single isomer, unassigned)     100
 5  CCCCCOC(=O)C(Cl)Cc1c(OC)c(Cl)cc(F)c1-n1c(=O)cc(C(F)(F)F)n(C)c1=O (single isomer, unassigned)     100
 6  CCCCOC(=O)C(Cl)Cc1c(OC)c(Cl)cc(F)c1-n1c(=O)cc(C(F)(F)F)n(C)c1=O (single isomer, unassigned)      95
 7  COc1c(Cl)cc(F)c(-n2c(=O)cc(C(F)(F)F)n(C)c2=O)c1CC(Cl)C(=O)OCC(F)(F)C(F)F (centres unmarked)      90
 8  C#CCOC(=O)C(Cl)Cc1c(OC)c(Cl)cc(F)c1-n1c(=O)cc(C(F)(F)F)n(C)c1=O (single isomer, unassigned)      80
 9  COc1c(Cl)cc(F)c(-n2c(=O)cc(C(F)(F)F)n(C)c2=O)c1CC(Cl)C(=O)OCC(F)(F)C(F)(F)C(F)(F)F (single isomer, unassigned)      50
10  CCCCCCOC(=O)C(C)(Cl)Cc1c(OC)c(Cl)cc(F)c1-n1c(=O)cc(C(F)(F)F)n(C)c1=O (centres unmarked)     100
11  COc1c(Cl)cc(F)c(-n2c(=O)cc(C(F)(F)F)n(C)c2=O)c1CC(C)(Cl)C(=O)OCc1ccccc1 (centres unmarked)     100
12  O=C(Nc1cc(Cl)ccc1N1C(=O)C2CCCCN2C1=O)c1ccc2ccccc2c1 (centres unmarked)     100
13  COc1c(Cl)cc(F)c(-n2c(=O)cc(C(F)(F)F)n(C)c2=O)c1CC(Cl)C(=O)OCCOc1ccccc1 (single isomer, unassigned)      90
14  CCCOC(=O)C(Cl)Cc1c(OC)c(Cl)cc(F)c1-n1c(=O)cc(C(F)(F)F)n(C)c1=O (single isomer, unassigned) [14-6]     100
15  C=COC(=O)C(C)(Cl)Cc1c(OC)c(Cl)cc(F)c1-n1c(=O)cc(C(F)(F)F)n(C)c1=O (centres unmarked)     100
16  COc1c(Cl)cc(F)c(-n2c(=O)cc(C(F)(F)F)n(C)c2=O)c1CC(C)(Cl)C(=O)OC(C)C (centres unmarked)     100

----------
test system: redroot pigweed (Amaranthus retroflexus, AMARE); test: Post-emerge test, greenhouse herbicide activity screening; assay type: in vivo; settings: post-emerge, 63 g ai/ha, 14 days after application, rating scale 0-100
Exam item: assign Satisfied to entries whose phytotoxicity rating AMARE is below 70 and Not satisfied to entries at or above 70. Note that a value of exactly 70 receives Not satisfied.

>>> print(df.to_string())
                          structureassmiles                              testedsystem  classification
0  Cn1c(C(F)(F)F)cc(=O)n(-c2c(F)cc(Cl)c(O)c2NC(=O)c2ncccn2)c1=O  redroot pigweed (Amaranthus retroflexus, AMARE)       Satisfied
1  COc1c(Cl)cc(F)c(-n2c(=O)cc(C(F)(F)F)n(C)c2=O)c1NC(=O)C=Cc1ccco1  redroot pigweed (Amaranthus retroflexus, AMARE)       Satisfied
2  COc1c(Cl)cc(F)c(-n2c(=O)cc(C(F)(F)F)n(C)c2=O)c1NC(=O)c1ccc(Cl)c(Cl)c1  redroot pigweed (Amaranthus retroflexus, AMARE)   Not satisfied
3  COc1c(Cl)cc(F)c(-n2c(=O)cc(C(F)(F)F)n(C)c2=O)c1NC(=O)C=Cc1ccccc1Cl  redroot pigweed (Amaranthus retroflexus, AMARE)   Not satisfied
4  Cn1c(C(F)(F)F)cc(=O)n(-c2c(F)cc(Cl)c(OCC#N)c2N(C(=O)c2ccc(F)cc2F)C(=O)c2ccc(F)cc2F)c1=O  redroot pigweed (Amaranthus retroflexus, AMARE)       Satisfied
5  COc1c(Cl)cc(F)c(-n2c(=O)cc(C(F)(F)F)n(C)c2=O)c1NC(=O)C(=O)c1ccccc1  redroot pigweed (Amaranthus retroflexus, AMARE)   Not satisfied
